Molecular target: hERG potassium channel (Homo sapiens, UniProt Q12809)
Sequence (Q12809 whole entry): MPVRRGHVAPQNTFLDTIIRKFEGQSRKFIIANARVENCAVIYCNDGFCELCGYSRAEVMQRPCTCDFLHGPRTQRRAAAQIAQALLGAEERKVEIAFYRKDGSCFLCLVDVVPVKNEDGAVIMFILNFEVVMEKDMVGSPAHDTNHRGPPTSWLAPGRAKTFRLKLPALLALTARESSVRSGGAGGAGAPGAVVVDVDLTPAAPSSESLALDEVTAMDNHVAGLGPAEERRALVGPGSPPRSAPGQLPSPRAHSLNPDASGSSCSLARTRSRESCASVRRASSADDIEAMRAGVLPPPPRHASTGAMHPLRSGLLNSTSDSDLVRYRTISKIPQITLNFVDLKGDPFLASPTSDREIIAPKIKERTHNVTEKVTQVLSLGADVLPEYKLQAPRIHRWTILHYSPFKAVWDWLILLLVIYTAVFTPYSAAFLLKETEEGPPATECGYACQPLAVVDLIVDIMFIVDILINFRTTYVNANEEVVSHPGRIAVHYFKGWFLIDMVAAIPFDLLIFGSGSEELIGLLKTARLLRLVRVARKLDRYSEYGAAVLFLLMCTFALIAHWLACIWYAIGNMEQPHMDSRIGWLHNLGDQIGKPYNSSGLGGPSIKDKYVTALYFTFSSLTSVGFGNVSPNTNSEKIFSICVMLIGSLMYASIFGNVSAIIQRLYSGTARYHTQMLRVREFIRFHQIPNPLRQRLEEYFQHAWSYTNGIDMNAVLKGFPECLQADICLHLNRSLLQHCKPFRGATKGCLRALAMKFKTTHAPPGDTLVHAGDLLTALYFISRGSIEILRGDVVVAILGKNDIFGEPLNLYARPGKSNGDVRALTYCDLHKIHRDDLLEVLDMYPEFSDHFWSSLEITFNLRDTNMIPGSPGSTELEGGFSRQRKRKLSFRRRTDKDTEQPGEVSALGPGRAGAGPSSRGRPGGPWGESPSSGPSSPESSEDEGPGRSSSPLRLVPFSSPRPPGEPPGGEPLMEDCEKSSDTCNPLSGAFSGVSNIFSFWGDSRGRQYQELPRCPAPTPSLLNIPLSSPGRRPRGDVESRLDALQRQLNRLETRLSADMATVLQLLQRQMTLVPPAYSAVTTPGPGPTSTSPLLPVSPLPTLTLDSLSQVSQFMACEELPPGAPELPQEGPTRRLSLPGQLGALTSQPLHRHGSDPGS
Experiment: Whole cell patch clamp, HEK 293 T-REx HERG cells
Settings: 10 μM
ASSAY ENDPOINT: hERG (%)
One number for each entry, in %.

These solved cases illustrate the format of a correct answer.
>  <COMPOUND>
O=C(OCc1ccccc1)c1cc2cc(Cl)ccc2o1

>  <UNITS>
%

>  <hERG (%)>
28

$$$$
>  <COMPOUND>
COc1ccc(CNC(=O)c2sc3ccc(Cl)cc3c2C)c(OC)c1

>  <UNITS>
%

>  <hERG (%)>
100

$$$$
>  <COMPOUND>
O=C(c1cc2cc(Cl)ccc2o1)N1CCCCC1Cc1ccccc1 (stereo not drawn)

>  <UNITS>
%

>  <hERG (%)>
6

$$$$
>  <COMPOUND>
COc1ccc(CNC(=O)c2oc3ccc(Cl)cc3c2C)c(OC)c1

>  <UNITS>
%

>  <hERG (%)>
47

$$$$
>  <COMPOUND>
COc1ccc(CNC(=O)c2oc3ccccc3c2-n2cccc2)c(OC)c1

>  <UNITS>
%

>  <hERG (%)>
41

$$$$

Here's the next entry for you.
State its hERG (%) for this compound: COc1ccc(CNC(=O)c2oc3ccccc3c2C)c(OC)c1
61

====

ASSAY ENDPOINT: melting point

These solved cases illustrate the format of a correct answer.
>  <COMPOUND>
COc1ccc(CNC(=O)c2oc3ccccc3c2C)c(OC)c1 [Compound 43]

>  <melting point>
110.7 to 111.5 °C

$$$$
>  <COMPOUND>
COc1ccc(NC(=O)c2cc3cc(Cl)ccc3o2)c(OC)c1 [Compound 24]

>  <melting point>
161.6 to 163.3 °C

$$$$

State its melting point for this compound: COC(=O)c1cccc(CNC(=O)c2cc3cc(Cl)ccc3o2)c1 [Compound 65]
154 to 155.6 °C

====

Target: human Kv4.3/KChIP2.2 potassium channel (Homo sapiens)
Construct: expressed in transfected cells
Sequence (Q9UK17 1-655): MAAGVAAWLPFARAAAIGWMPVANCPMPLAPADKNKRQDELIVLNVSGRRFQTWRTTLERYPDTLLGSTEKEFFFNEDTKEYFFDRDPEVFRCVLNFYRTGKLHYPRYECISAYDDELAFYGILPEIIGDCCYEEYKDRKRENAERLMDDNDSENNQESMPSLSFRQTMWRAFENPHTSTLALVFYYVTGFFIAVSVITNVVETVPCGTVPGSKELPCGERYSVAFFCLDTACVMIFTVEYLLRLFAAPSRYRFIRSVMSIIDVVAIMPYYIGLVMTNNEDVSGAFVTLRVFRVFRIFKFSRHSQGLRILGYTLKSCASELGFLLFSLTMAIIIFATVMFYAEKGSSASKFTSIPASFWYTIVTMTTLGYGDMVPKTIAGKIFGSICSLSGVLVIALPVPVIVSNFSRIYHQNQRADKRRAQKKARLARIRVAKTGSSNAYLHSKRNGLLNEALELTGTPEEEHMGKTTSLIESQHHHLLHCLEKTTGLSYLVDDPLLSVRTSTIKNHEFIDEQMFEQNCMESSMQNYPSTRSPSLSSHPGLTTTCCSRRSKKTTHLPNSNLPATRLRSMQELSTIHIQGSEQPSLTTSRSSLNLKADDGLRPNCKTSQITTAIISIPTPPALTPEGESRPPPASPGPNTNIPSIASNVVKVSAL
Sequence (Q9NS61 1-270 partner): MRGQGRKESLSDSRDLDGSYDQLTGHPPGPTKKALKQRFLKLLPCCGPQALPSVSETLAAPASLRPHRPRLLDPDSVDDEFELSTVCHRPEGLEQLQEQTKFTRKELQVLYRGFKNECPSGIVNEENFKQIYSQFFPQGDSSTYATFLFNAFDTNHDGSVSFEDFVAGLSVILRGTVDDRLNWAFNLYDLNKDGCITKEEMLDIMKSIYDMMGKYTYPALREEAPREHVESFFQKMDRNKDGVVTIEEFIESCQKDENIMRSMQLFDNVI
Test: Whole cell patch clamp, CHO-K1 cells stably expressing Kv4.3/KChIP2.2
Format: cell-based
Settings: CHO-K1; 1 μM; read-out: Kv4.3 charge in %: remaining current measured after application of the compound and relative to the blank
Could you please report measured remaining activity at 1 µM for the items listed next?
One number for each entry, in %.

Provide remaining activity at 1 µM values for the following items, in order.
1. O=C(NCc1ccc2c(c1)OCO2)c1cc2cc(Cl)ccc2o1
2. CC(=O)Oc1ccc(CNC(=O)c2cc3cc(Cl)ccc3o2)cc1
3. O=C(c1cc2cc(Cl)ccc2o1)N1Cc2ccccc2C1
4. O=C(Nc1ccc(Cn2cccn2)cc1)c1cc2cc(Cl)ccc2o1
5. COc1ccc(CC(=O)c2cc3ccccc3o2)c(OC)c1

[64, 89, 81, 90, 83]

====

Could you please report measured melting point for the items listed next?

These solved cases illustrate the format of a correct answer.
>  <COMPOUND>
O=C(c1cc2cc(Cl)ccc2o1)N1Cc2ccccc2C1 [Compound 26]

>  <melting point>
187.1 to 188.5 °C

$$$$
>  <COMPOUND>
O=C(Nc1ccc(Cn2cccn2)cc1)c1cc2cc(Cl)ccc2o1 [Compound 105]

>  <melting point>
197.4 to 198.8 °C

$$$$
>  <COMPOUND>
Cc1ccc(C)c(CNC(=O)c2cc3cc(Cl)ccc3o2)c1 [Compound 90]

>  <melting point>
123.1 to 124 °C

$$$$

Provide melting point values for the following items, in order.
1. COc1ccc(CC(=O)Nc2cc3ccccc3o2)c(OC)c1 [Compound 22]
2. CC[C@H](NC(=O)c1cc2cc(Cl)ccc2o1)c1ccccc1 [Compound 59]

1. 126.4 to 128.2 °C
2. 110.1 to 111.3 °C

Provide melting point values for the following items, in order.
1. O=C(NCc1ccc2c(c1)OCO2)c1cc2cc(Cl)ccc2o1 [Compound 92]
2. O=C(NCc1cccc(-c2ccccc2)c1)c1cc2cc(Cl)ccc2o1 [Compound 73]
3. O=C(c1cc2cc(Cl)ccc2o1)N1CCC(Cc2ccccc2)CC1 [Compound 101]
4. O=C(c1ccc(F)cc1)C1CCN(C(=O)c2cc3cc(Cl)ccc3o2)CC1 [Compound 102]
5. O=C(NCc1ccc(Oc2ccccc2)cc1)c1cc2cc(Cl)ccc2o1 [Compound 68]
6. O=C(c1cc2cc(Cl)ccc2o1)N1CC=C(c2ccc(F)cc2)CC1 [Compound 93]
7. O=C(c1cc2cc(Cl)ccc2o1)N1CCCC1c1ccccc1 (stereo not shown) [Compound 103]
8. COC(=O)[C@H](NC(=O)c1cc2cc(Cl)ccc2o1)c1ccccc1 [Compound 84]

1: 144 to 145.9 °C; 2: 130.4 to 131 °C; 3: 114.6 to 116.2 °C; 4: 135 to 137.1 °C; 5: 93.6 to 95.5 °C; 6: 111.3 to 116.6 °C; 7: 123.3 to 125.4 °C; 8: 147.9 °C

Provide melting point values for the following items, in order.
1. O=C(NCc1cccs1)c1cc2cc(Cl)ccc2o1 [Compound 39]
2. O=C(c1cc2cc(Cl)ccc2o1)N1CCC(c2ccccc2)CC1 [Compound 38]
3. CC(NC(=O)c1cc2cc(Cl)ccc2o1)c1ccccc1 (stereo not shown) [Compound 57]
4. O=C(N[C@H](C(=O)O)c1ccccc1)c1cc2cc(Cl)ccc2o1 [Compound 41]

148.4 to 149.9 °C
101 to 101.6 °C
136.3 to 138.2 °C
211.2 to 215.6 °C

Provide melting point values for the following items, in order.
1. CC(=O)Oc1ccc(CNC(=O)c2cc3cc(Cl)ccc3o2)cc1 [Compound 33]
2. COc1ccc(CNC(=O)c2sc3ccc(Cl)cc3c2C)c(OC)c1 [Compound 21]

162.5 to 164.5 °C
146.8 to 147.8 °C

====

Target: human Kv4.3/KChIP2.2 potassium channel (Homo sapiens, UniProt Q9UK17)
Construct: expressed in transfected cells
Sequence (Q9UK17 1-655): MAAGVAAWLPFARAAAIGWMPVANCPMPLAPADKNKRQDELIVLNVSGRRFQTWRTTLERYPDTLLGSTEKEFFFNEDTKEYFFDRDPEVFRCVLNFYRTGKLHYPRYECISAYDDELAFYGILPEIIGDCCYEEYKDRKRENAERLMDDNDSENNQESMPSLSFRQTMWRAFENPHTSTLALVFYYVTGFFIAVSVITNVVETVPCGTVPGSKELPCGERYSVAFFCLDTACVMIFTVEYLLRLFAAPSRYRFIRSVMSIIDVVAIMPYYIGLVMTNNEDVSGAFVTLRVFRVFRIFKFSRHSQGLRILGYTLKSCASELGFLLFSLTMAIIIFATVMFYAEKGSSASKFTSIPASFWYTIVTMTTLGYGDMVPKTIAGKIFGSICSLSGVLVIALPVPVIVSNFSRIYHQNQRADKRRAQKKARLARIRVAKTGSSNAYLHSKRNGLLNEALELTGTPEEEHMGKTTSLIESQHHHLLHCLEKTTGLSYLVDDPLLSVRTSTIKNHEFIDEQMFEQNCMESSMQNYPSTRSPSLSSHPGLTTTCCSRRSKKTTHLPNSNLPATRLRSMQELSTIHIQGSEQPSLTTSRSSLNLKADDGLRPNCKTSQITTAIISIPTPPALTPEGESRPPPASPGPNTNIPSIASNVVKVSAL
Sequence (Q9NS61 1-270 partner): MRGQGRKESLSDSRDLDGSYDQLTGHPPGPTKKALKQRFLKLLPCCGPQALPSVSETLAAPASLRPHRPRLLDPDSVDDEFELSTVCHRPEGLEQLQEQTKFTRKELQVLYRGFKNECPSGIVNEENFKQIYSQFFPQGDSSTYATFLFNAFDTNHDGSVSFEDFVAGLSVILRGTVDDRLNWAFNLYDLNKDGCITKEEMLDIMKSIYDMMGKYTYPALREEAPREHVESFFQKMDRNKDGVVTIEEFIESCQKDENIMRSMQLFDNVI
Experiment: Whole cell patch clamp, CHO-K1 cells stably expressing Kv4.3/KChIP2.2
Type: cell-based
Settings: CHO-K1; 1 μM; read-out: Kv4.3 peak in %: remaining peak height measured after application of the compound and relative to the blank
Could you please report measured remaining activity at 1 µM for the items listed next?
Numbers only, in %.

>  <SUBSTANCE SMILES>
O=C(c1cc2cc(Cl)ccc2o1)N1CC=C(c2ccc(F)cc2)CC1

>  <RECORDED MEASUREMENT>
89

$$$$

Provide remaining activity at 1 µM values for the following items, in order.
1. O=C(Nc1ccc(Cn2cccn2)cc1)c1cc2cc(Cl)ccc2o1
2. O=C(NC1Cc2ccccc2C1)c1cc2cc(Cl)ccc2o1
3. COc1ccc(CC(=O)Nc2cc3ccccc3o2)c(OC)c1

1. 99
2. 100
3. 100

State its remaining activity at 1 µM for this compound: Cc1ccc(C2CCN(C(=O)c3cc4cc(Cl)ccc4o3)CC2)cc1
97

Data provenance is patent US20080039442A1.
